- assay-details: pH and solubilizer effect on solubility
- Type: physicochemical
- condition: pH 10.0 buffer with 2 wt % SLS, 25 °C, pH 10, aqueous with cosolvent or surfactant or cyclodextrin, thermodynamic from solid, pH 10.0 buffer, with 2 wt % SLS, potassium salt
- Experimental: Solubility of compound 2 (potassium salt) was evaluated at various pH levels.
endpoint-label: solubility at 24 h (µg/mL)
Numbers only here, please. The scale is µg/mL.

Enquiry: Consider the molecule shown here: N#Cc1nn(-c2cc(Cl)c(Oc3n[nH]c(=O)c4ccccc34)c(Cl)c2)c(=O)[nH]c1=O What is its recorded solubility at 24 h?
Return: 308

###

- target-or-test-system: THR-β (Homo sapiens, UniProt P10828)
- Sequence (P10828 whole entry): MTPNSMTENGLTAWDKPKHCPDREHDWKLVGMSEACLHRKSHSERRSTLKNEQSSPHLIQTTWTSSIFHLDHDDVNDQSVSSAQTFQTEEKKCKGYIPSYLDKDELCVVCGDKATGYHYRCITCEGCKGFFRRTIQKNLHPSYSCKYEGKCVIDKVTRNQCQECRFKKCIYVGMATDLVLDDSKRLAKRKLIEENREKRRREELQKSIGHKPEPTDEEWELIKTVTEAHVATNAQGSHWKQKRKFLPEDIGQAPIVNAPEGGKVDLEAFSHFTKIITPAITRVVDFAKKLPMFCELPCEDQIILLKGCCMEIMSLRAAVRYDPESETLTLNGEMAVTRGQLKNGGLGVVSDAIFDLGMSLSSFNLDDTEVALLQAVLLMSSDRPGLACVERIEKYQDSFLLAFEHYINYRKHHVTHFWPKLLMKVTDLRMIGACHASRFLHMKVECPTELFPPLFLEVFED
- assay-details: Agonistic activity toward the thyroxine receptor beta
endpoint-label: pEC50
# log scale: pEC50 equals minus log10 of the concentration in mol/L

Enquiry: Fill in the recorded pEC50 for this compound, with THR-β (Homo sapiens, UniProt P10828) as test system: N#Cc1nn(-c2cc(Cl)c(Oc3n[nH]c(=O)c4ccccc34)c(Cl)c2)c(=O)[nH]c1=O [Compound 2]
Return: 5.76

###

- assay-details: Single-ascending dose trial of Compound 2 in healthy participants: safety and PK
- Format: in vivo, human
- condition: human, plasma, oral, 60 mg, single dose 60 mg, fasted (n = 6); median (min-max); read-out: t1/2 (converted)
- Description: A single-ascending dose clinical trial of Compound 2 (potassium salt) was performed. Compound 2 plasma and urine concentrations were determined using validated liquid chromatography-tandem mass spectrometry assay Urine samples for Compound 2 concentration and PK sampling were collected pre-dose and at the following timepoints: 0-6 hours, 6-12 hours, 12-24 hours, and 24-48 hours. PK parameters were estimated via noncompartmental methods using Phoenix® WinNonlin® (Certara, LP, Princeton, N.J.). […]
endpoint-label: half-life (h)
Numbers only here, please. The scale is h.

Enquiry: Consider the molecule shown here: N#Cc1nn(-c2cc(Cl)c(Oc3n[nH]c(=O)c4ccccc34)c(Cl)c2)c(=O)[nH]c1=O What is its recorded half-life?
Return: 13.8

###

- assay-details: Mouse NASH model (high fat diet + CCl4), Compound 2
- Type: in vivo
- condition: C57BL/6J, in vivo, oral; mouse model of NASH; read-out: threshold AUC achieving significant histological improvement
endpoint-label: AUC (ng·h/mL)
Numbers only here, please. The scale is ng·h/mL.

Enquiry: Consider the compound shown here: N#Cc1nn(-c2cc(Cl)c(Oc3n[nH]c(=O)c4ccccc34)c(Cl)c2)c(=O)[nH]c1=O What is its recorded AUC?
Return: 3320

###

- assay-details: Multiple-ascending dose trial of Compound 2 in healthy participants
- Format: in vivo, human
- condition: human, plasma, oral; Day 14, 6 mg QD; read-out: t1/2 (median) (converted)
endpoint-label: half-life (h)
Numbers only here, please. The scale is h.

Enquiry: Consider the compound shown here: N#Cc1nn(-c2cc(Cl)c(Oc3n[nH]c(=O)c4ccccc34)c(Cl)c2)c(=O)[nH]c1=O What is its recorded half-life?
Return: 15.8

###

- assay-details: Single-ascending dose trial of Compound 2 in healthy participants: safety and PK
- Assay type: in vivo, human
- condition: human, plasma, oral; single dose 30 mg, fasted (n = 6); median (min-max)
endpoint-label: Tmax (h)
Numbers only here, please. The scale is h.

Enquiry: Consider the compound shown here: N#Cc1nn(-c2cc(Cl)c(Oc3n[nH]c(=O)c4ccccc34)c(Cl)c2)c(=O)[nH]c1=O What is its recorded Tmax?
Return: 4
